This collection of values is drawn from paper PMC12067128.

Items are presented alongside their recorded microsomal CLint at 1 h, 1 µM.
Assay: Microsomes stability (clearance in human microsomes)
Assay type: in vitro ADME
Conditions: liver microsomes, pH 7.4, 0.8 mg protein/mL, 1 mM NADPH, 37 °C, read-out: CLint h mic (clearance in human microsomes)
Give the number first and the unit second.

compound	measured.quantity	assay.result
Cc1ccc(C(=O)Nc2cccc(C(F)(F)F)c2)cc1-c1cc2nc(Nc3cnn(C)c3)ncc2[nH]1 [Compound 1]	microsomal CLint at 1 h, 1 µM	19 µL/min/mg

// field: microsomal CLint at 1 h, 1 µM; key: Cn1cc2c3nc(ncc31)Nc1cnn(c1)CCCNC(=O)COc1ccc-2cc1 [Compound 5b] ; value = 88.5 µL/min/mg

O=C1COc2ccc(cc2)Nc2ccnc(n2)Nc2cnn(c2)CCCN1 [Compound 6b] has a reported microsomal CLint at 1 h, 1 µM of 12.1 µL/min/mg
